target: T1, EGFR Fc (human, UniProt P00533 25-645); assay: blocking ELISA, EGFR-hFc + VHH at 40 nM on coated EGF-mFc
T1 construct: also called EGFR-hFc; recombinant human EGFR-Fc
OD450 for assorted binders
Write the number on its own, no unit after it.

Below are worked cases with known answers.
pgEG5 (VHH, not shown: small tags and cut ends) VHH: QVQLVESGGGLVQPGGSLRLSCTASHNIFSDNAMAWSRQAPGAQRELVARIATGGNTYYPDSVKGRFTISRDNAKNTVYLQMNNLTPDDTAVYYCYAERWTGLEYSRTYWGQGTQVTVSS
1.11
pgEG-SX6 (VHH, not shown: small tags and cut ends) VHH: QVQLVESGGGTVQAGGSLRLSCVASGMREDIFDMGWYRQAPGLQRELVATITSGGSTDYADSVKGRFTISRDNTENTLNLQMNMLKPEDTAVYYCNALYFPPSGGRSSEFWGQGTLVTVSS
0.606

Query: Reported OD450 for pgEG-SX40 (VHH, not shown: small tags and cut ends) VHH: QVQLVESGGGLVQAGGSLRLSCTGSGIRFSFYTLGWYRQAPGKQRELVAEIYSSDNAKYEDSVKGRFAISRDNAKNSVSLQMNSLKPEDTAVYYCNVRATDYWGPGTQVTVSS : what is it?
Result: 0.414

Query: Reported OD450 for pgEG-SX3 (VHH, not shown: small tags and cut ends) VHH: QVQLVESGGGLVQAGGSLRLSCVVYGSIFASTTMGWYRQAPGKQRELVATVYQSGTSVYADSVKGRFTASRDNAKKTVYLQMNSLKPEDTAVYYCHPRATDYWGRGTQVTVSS : what is it?
Result: 0.482

Query: Reported OD450 for pgEG-SX57 (VHH, not shown: small tags and cut ends) VHH: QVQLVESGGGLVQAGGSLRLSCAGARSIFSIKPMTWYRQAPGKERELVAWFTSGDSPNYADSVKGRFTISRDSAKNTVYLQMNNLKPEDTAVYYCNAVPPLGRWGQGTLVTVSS : what is it?
Result: 0.433

Query: Reported OD450 for pgEG-SX22 (VHH, not shown: small tags and cut ends) VHH: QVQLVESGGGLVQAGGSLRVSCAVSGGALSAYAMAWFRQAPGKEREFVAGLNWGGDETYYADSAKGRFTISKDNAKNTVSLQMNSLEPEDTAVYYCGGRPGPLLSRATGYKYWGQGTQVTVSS : what is it?
Result: 0.801
